- CONDITION_SUMMARY: human gut metagenome, 24 h, 2 µM; also: call rule not given here
VALUE_KIND: Bacterial Biotransformation

Here are 5 compounds together with their reported answers.
INSERT INTO assay_data (compound, value_kind, result) VALUES
  ('Br.COc1ccc2c(c1)[C@]13CCCC[C@@H]1[C@H](C2)N(C)CC3.O [DEXTROMETHORPHAN HYDROBROMIDE]', 'Bacterial Biotransformation', 'Compound NOT metabolized'),
  ('CNNCc1ccc(C(=O)NC(C)C)cc1', 'Bacterial Biotransformation', 'Compound NOT metabolized'),
  ('CCCCC(=O)O[C@]1(C(=O)CO)[C@@H](C)C[C@H]2[C@@H]3CCC4=CC(=O)C=C[C@]4(C)[C@@]3(F)[C@@H](O)C[C@@]21C [BETAMETHASONE VALERATE]', 'Bacterial Biotransformation', 'Compound metabolized'),
  ('CN1[C@@H]2CC[C@H]1C[C@@H](OC(=O)c1c[nH]c3ccccc13)C2', 'Bacterial Biotransformation', 'Compound NOT metabolized'),
  ('OCCN(CCO)c1nc(N2CCCCC2)c2nc(N(CCO)CCO)nc(N3CCCCC3)c2n1', 'Bacterial Biotransformation', 'Compound metabolized');

# per-item lookup of Bacterial Biotransformation; items listed below
1. COCCCC/C(=N\OCCN)c1ccc(C(F)(F)F)cc1.O=C(O)/C=C\C(=O)O [FLUVOXAMINE MALEATE]
2. CN(C)C(=O)Oc1cc(OC(=O)N(C)C)cc(C(O)CNC(C)(C)C)c1 (stereo not given)
3. C=CC[C@@H]1/C=C(\C)C[C@H](C)C[C@H](OC)[C@H]2O[C@@](O)(C(=O)C(=O)N3CCCC[C@H]3C(=O)O[C@H](/C(C)=C/[C@@H]3CC[C@@H](O)[C@H](OC)C3)[C@H](C)[C@@H](O)CC1=O)[C@H](C)C[C@@H]2OC.O

A)
["Compound NOT metabolized", "Compound metabolized", "Compound metabolized"]

For every item below, please supply its Bacterial Biotransformation.
1. CC(N)C12CC3CC(CC(C3)C1)C2 (stereo not given)
2. CCCC(C)(COC(N)=O)COC(=O)NC(C)C (stereo not given)
3. O=C([O-])C[C@H](O)C[C@H](O)/C=C/c1c(C2CC2)nc2ccccc2c1-c1ccc(F)cc1.O=C([O-])C[C@H](O)C[C@H](O)/C=C/c1c(C2CC2)nc2ccccc2c1-c1ccc(F)cc1.[Ca+2]
4. COC(=O)[C@H](c1ccccc1Cl)N1CCc2sccc2C1.O=S(=O)(O)O [CLOPIDOGREL BISULFATE]
5. Cc1ccccc1C(OCCN(C)C)c1ccccc1.O=C(O)CC(O)(CC(=O)O)C(=O)O (stereo not given) [ORPHENADRINE CITRATE]
6. CC(C)(C)NCC(O)c1cc(Cl)c(N)c(Cl)c1 (stereo not given)

A)
1. Compound NOT metabolized
2. Compound metabolized
3. Compound NOT metabolized
4. Compound metabolized
5. Compound metabolized
6. Compound NOT metabolized

Q) Looking for the measured Bacterial Biotransformation of N=C(N)NC(=O)Cc1c(Cl)cccc1Cl , can you help?
A) Compound NOT metabolized

* * *

- CONDITION_SUMMARY: human gut metagenome, 24 h, 2 µM
VALUE_KIND: Bacterial Biotransformation

Example results:
INSERT INTO assay_data (compound, result) VALUES
  ('O=C(O)CCC(=O)O.O=C(O[C@H]1CN2CCC1CC2)N1CCc2ccccc2[C@@H]1c1ccccc1 [SOLIFENACIN SUCCINATE]', 'Compound metabolized'),
  ('C[N+]12CCC(CC1)C(OC(=O)C(O)(c1ccccc1)c1ccccc1)C2.[Br-] (stereo unspecified) [CLIDINIUM BROMIDE]', 'Compound NOT metabolized'),
  ('CC(=O)CCCCn1c(=O)c2c(ncn2C)n(C)c1=O', 'Compound NOT metabolized'),
  ('CN1CCN(C2=Nc3ccccc3Oc3ccc(Cl)cc32)CC1.O=C(O)CCC(=O)O [LOXAPINE SUCCINATE]', 'Compound NOT metabolized'),
  ('COC1=C(OC)C(=O)C(CCCCCCCCCCO)=C(C)C1=O', 'Compound metabolized');

// each compound listed below needs its Bacterial Biotransformation
1. N#Cc1ccc2[nH]cc(CCCCN3CCN(c4ccc5oc(C(N)=O)cc5c4)CC3)c2c1
2. CCN(C(C)=O)c1cccc(-c2ccnc3c(C#N)cnn23)c1
3. Nc1nnc(-c2cccc(Cl)c2Cl)c(N)n1
4. CC(=O)OCC(=O)NCCCOc1cccc(CN2CCCCC2)c1 [ROXATIDINE ACETATE]

A)
Compound metabolized
Compound metabolized
Compound NOT metabolized
Compound metabolized

Hey, quick one: what's Bacterial Biotransformation for each of these?
1. COc1ccc2c(c1)c(CC(=O)O)c(C)n2C(=O)c1ccc(Cl)cc1
2. CCOC(=O)C1=C(C)NC(C)=C(C(=O)OC)C1c1cccc([N+](=O)[O-])c1 (stereo unspecified)
3. COc1cc2nc(N3CCN(C(=O)C4COc5ccccc5O4)CC3)nc(N)c2cc1OC.CS(=O)(=O)O (stereo unspecified) [DOXAZOSIN MESYLATE]
4. CC(C)c1c(CN(C)C(C)Cc2ccccc2)n(C)n(-c2ccccc2)c1=O (stereo unspecified)
5. COc1ccc(/C=C/C(=O)Nc2ccccc2C(=O)O)cc1OC
6. CC(=O)O[C@H]1C(=O)[C@@]2(C)[C@H]([C@H](OC(=O)c3ccccc3)[C@]3(O)C[C@H](OC(=O)[C@H](O)[C@@H](NC(=O)c4ccccc4)c4ccccc4)C(C)=C1C3(C)C)[C@]1(OC(C)=O)CO[C@@H]1C[C@@H]2O
7. CCOc1ccccc1OCCN[C@H](C)Cc1ccc(OC)c(S(N)(=O)=O)c1.Cl [TAMSULOSIN HYDROCHLORIDE]

A)
["Compound metabolized", "Compound metabolized", "Compound NOT metabolized", "Compound metabolized", "Compound NOT metabolized", "Compound NOT metabolized", "Compound NOT metabolized"]
